- subject of test: T1, Recombinant human CD4 (R&D Systems, Cat. 10327-CD) (human, UniProt P01730 26-390, limits assumed)
- T1 construct: Soluble analyte in the Octet assay
- experiment summary: BLI Octet, mAb on anti-mouse Fc sensor, CD4 100/50/25 nM, 1:1 global fit;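 also: antibodies loaded at 10 µg/mL, an unrelated mouse-derived antibody served as internal reference control, association and dissociation phases fitted after Savitzky-Golay smoothing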
pKd: −log10 of the molar value.
Cut-off 8 on pKd, inclusive. At or above means fulfilled; below means not fulfilled.

binder="75110_02E22A (antibody, V domains shown, Tested as antibody purified from AlivaMab Mouse hybridoma supernatant (captured by anti-mouse IgG Fc)) VH: QVQLQESGPGLVKPSETLSLTCTVSGGSISSFYWSWIRQPAGKGLEWIGRIYTSGSTNYNPSLKSRVTMSVDTSKNQFSLKLSSVTAADTAVYYCARELEKRNYYGMDVWGQGTTVTVSS VL: DIQMTQSPSSLSASVGDRVTITCQASHDISNYLNWYQQKPGKAPKLLIFDASTLETGVPSRFSGSGSGTYFTFTIRSLQPEDIATYYCQQYDSLPLTFGGGTKVEIK" discrete_label="not fulfilled"
binder="75110_03C01A (antibody, V domains shown, Tested as antibody purified from AlivaMab Mouse hybridoma supernatant (captured by anti-mouse IgG Fc)) VH: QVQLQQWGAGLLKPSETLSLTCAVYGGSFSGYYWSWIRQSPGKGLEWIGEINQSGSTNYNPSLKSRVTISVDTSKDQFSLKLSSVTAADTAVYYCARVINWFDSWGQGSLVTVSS VL: DIQMTQSPSSVSASVGDRVTITCRASQGISSWLAWYQQKPGNAPKLLIYDASSFQSGVPSRFSGSGSGTDFTLTISSLQTEDFATYYCQQANSFPYTFGQGTKLEIK" discrete_label=fulfilled
binder="75110_02I18A (antibody, V domains shown, Tested as antibody purified from AlivaMab Mouse hybridoma supernatant (captured by anti-mouse IgG Fc)) VH: EVQVVESGGGLVQPGGSLRLSCAASGFTFSSYDMHWVRQATGKGLEWVSTIGTAGDTYYPGSVKGRFTISRENAKNSLYLQMNSLRAGDTAVYYCARGGYYYYGMDVWGQGTTVTVSS VL: EIVLTQSPGTLSLSPGERATLSCRASQSVSSSYLAWYQQKPGQSPRLLIHGASSRATGIPDRVSGSGSGTDFTLTISRLEPEDFAVYYCQQYGSSPFTFGPGTKVDIK" discrete_label="not fulfilled"
binder="75110_02I16A (antibody, V domains shown, Tested as antibody purified from AlivaMab Mouse hybridoma supernatant (captured by anti-mouse IgG Fc)) VH: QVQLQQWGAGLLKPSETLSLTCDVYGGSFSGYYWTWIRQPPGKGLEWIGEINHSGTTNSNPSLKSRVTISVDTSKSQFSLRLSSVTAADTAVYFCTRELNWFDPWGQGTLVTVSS VL: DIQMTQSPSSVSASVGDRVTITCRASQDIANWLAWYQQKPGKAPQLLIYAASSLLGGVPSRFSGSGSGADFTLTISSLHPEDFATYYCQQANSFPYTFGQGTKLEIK" discrete_label=fulfilled
binder="75110_05E05A (antibody, V domains shown, Tested as antibody purified from AlivaMab Mouse hybridoma supernatant (captured by anti-mouse IgG Fc)) VH: QVQLQESGPGLVKPSETLSLTCTVSGGSIGSYYWSWIRQPAGKGLEWIGRIYTSGSTNYNPSLKSRVTMSFDTSKNQFSLKLNSVTAADTAVYYCATDGGVGDSLDYWGQGTLVTVSS VL: DIVMTQTPLSLPVTPGEPASISCRSSQSLLDSDDGNTYLDWYLQKPGQSPQLLIYTLSYRASGVPDRFSGSGSGTDFTLKISRVEAEDVGVYYCMQHIEFPFTFGPGTKVDIK" discrete_label=fulfilled
binder="75110_03L12A (antibody, V domains shown, Tested as antibody purified from AlivaMab Mouse hybridoma supernatant (captured by anti-mouse IgG Fc)) VH: QVQLQQWGAGLLKPSETLSLTCAVYGGSFSGYYWSWIRQPPGKGLEWIGEINHSGSTNYNPSLKSRVTISVDTSENQFSLTLISVTAADTAVYYCVRLINWFDPWGQGTLVTVSS VL: DIQMTQSPSSVSASVGDRVTITCRASQDISNWLAWYQQKPGKAPKLLIFAASSLQSGVPSRFSGSGSGTDFTLTISSLQPDDFATYYCQQANSFPYTFGQGTNLGIK" discrete_label=fulfilled
binder="75110_04P08A (antibody, V domains shown, Tested as antibody purified from AlivaMab Mouse hybridoma supernatant (captured by anti-mouse IgG Fc)) VH: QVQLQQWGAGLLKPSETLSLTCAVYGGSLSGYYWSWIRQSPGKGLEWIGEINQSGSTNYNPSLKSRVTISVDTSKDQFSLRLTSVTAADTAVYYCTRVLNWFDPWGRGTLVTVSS VL: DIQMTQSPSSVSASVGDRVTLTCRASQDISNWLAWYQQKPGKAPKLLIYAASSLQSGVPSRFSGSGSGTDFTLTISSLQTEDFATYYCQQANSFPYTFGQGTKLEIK" discrete_label=fulfilled
binder="75110_04P06A (antibody, V domains shown, Tested as antibody purified from AlivaMab Mouse hybridoma supernatant (captured by anti-mouse IgG Fc)) VH: EVQLVESGGGLVQPGGSLRLSCAASGFTFSNYDMHWVRQATGKGLEWVSTIGTAGDTYYPGSVKGRFTISRENAKNSLYLQMNSLRAGDTAVYYCARGGDYYYGMDVWGQGTTVTVSS VL: EIVLTQSPDTLSLSPGERATLSCRASQSLSSVYLAWYQQKPGQAPRLLIYGASSRATGIPDRFSGSGSGTDFTLTINRLEPEDFVVYYCQQYGSSPFTFGPGTKVDIK" discrete_label=fulfilled
